# target desc: human ether-à-go-go-related gene (hERG) potassium channel (human, UniProt Q12809);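 note: peak tail current of the secondary pulse compared with the same well before compound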
# Sequence (Q12809 whole entry, looked up): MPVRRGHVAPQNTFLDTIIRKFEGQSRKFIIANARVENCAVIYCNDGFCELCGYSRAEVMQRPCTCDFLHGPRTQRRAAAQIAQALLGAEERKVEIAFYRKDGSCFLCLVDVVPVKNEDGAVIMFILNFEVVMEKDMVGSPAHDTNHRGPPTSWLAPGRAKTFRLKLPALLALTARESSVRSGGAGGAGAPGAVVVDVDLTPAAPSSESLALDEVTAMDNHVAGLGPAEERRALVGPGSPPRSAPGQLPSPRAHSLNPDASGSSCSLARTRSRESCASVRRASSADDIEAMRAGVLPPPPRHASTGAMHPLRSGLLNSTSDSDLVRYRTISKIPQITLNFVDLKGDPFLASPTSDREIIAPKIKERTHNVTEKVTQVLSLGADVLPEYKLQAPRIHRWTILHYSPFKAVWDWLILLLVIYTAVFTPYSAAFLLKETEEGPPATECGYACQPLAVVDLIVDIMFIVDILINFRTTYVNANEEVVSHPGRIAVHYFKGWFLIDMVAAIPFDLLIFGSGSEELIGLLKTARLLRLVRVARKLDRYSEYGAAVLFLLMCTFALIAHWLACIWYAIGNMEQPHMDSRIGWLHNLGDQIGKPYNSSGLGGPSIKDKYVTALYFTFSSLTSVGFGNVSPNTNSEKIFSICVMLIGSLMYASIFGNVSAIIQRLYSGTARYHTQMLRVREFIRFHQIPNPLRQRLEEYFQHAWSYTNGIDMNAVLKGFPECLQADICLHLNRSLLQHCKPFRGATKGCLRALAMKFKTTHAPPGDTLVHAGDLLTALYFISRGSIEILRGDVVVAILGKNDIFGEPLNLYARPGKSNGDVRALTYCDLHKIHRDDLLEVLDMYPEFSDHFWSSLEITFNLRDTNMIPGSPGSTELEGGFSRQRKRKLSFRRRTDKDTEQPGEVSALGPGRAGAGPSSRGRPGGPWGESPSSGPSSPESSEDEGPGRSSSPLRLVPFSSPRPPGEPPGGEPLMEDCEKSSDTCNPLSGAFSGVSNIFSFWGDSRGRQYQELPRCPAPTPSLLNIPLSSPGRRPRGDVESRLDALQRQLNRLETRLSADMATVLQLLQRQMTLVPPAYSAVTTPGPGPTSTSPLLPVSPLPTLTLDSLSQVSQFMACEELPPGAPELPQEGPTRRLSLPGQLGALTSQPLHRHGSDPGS
# measurement description: primary screen, population patch clamp on CHO cells stably expressing hERG; higher = less effect of the substance
The campaign covered roughly 310,000 compounds. About 14,000 (4.5%) showed an effect of 50% or more. Effects have a minus sign here. The list comes from a sample in which strong results are over-represented; it also holds close analogues and randomly drawn compounds.
recorded endpoint: hERG current change (%, negative = inhibition) at 10uM (%)
Record the value in %, omitting the unit from your answer.

Worked examples follow.
[[record]]
compound = "NC(=O)CC(NC(=O)c1ccccc1)c1ccc(NC2CCCC2)c([N+](=O)[O-])c1 (stereo not shown)"
value_units = "%"
recorded_measurement = 5.39

[[record]]
compound = "CCOc1cc(N2CCOCC2)c(OCC)cc1NC(=O)c1nc2nc(C)cc(C)n2n1"
value_units = "%"
recorded_measurement = 18.4

[[record]]
compound = "Cc1cc(F)ccc1NC(=S)NC1CCCC1"
value_units = "%"
recorded_measurement = 17.9

[[record]]
compound = "CC(=O)c1ccc(NC(=O)CN2CCC(NC(=O)C3CCCCC3)CC2)cc1"
value_units = "%"
recorded_measurement = -6.72

[[record]]
compound = "Cc1ccc(S(=O)(=O)N/N=c2\\oc3ccccc3cc2C(=O)Nc2cccc(C)c2)cc1"
value_units = "%"
recorded_measurement = -68.1

[[record]]
compound = "O=C(CCCNS(=O)(=O)c1cccc2nsnc12)N1CCCCC1"
value_units = "%"
recorded_measurement = 10.7

[[record]]
compound = "COc1cccc2cc(C(=O)Nc3cc(C)cc(C)c3)/c(=N/NS(=O)(=O)c3ccccc3)oc12"
value_units = "%"
recorded_measurement = 19.5

[[record]]
compound = "O=C(CCN1C(=O)c2cccc3cccc(c23)C1=O)NCc1cccnc1"
value_units = "%"
recorded_measurement = -16.7

[[record]]
compound = "CC(C)C1CC(c2csc(N)n2)CCO1 (stereo not shown)"
value_units = "%"
recorded_measurement = 18.8


Now let's try a different one.
Which measured hERG current change (%, negative = inhibition) at 10uM value corresponds to Cc1ccn2c(=O)c(NC(=O)c3cccc4ccccc34)c(C)nc2c1 ?
-1.31

====

# target desc: human ether-à-go-go-related gene (hERG) potassium channel (human, UniProt Q12809);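 note: peak tail current of the secondary pulse compared with the same well before compound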
# measurement description: primary screen, population patch clamp on CHO cells stably expressing hERG; higher = less effect of the substance
Screen size: about 310,000 compounds; about 14,000 (4.5%) showed an effect of 50% or more. The effect is printed as a negative number. The entries come from a sample that favours strong results as a whole.
recorded endpoint: hERG current change (%, negative = inhibition) at 10uM (%)
Record the value in %, omitting the unit from your answer.

[[record]]
compound = "c1ccc(-c2nc(N3CCCC3)nc3ccccc23)cc1"
target_desc = "human ether-à-go-go-related gene (hERG) potassium channel (human, UniProt Q12809)"
value_units = "%"
recorded_measurement = 8.87


Which measured hERG current change (%, negative = inhibition) at 10uM value corresponds to O=[N+]([O-])c1ccc(N2CCN(Cc3ccncc3)CC2)cc1 ?
-64.8

Which measured hERG current change (%, negative = inhibition) at 10uM value corresponds to COc1cc(OC)cc(-c2c(-c3cccs3)c3cc(-c4ccc(OC)c(F)c4)ccc3n2C)c1 ?
12.3

Which measured hERG current change (%, negative = inhibition) at 10uM value corresponds to COC(=O)C1CCN(C(=O)COC(=O)c2ccc(=O)n(Cc3ccccc3)n2)CC1 ?
-4.78

Which measured hERG current change (%, negative = inhibition) at 10uM value corresponds to CCOC(=O)N1CCN(c2nc(-c3ccccc3)c3ccccc3n2)CC1 ?
5.1

Which measured hERG current change (%, negative = inhibition) at 10uM value corresponds to C=CCn1c(COc2ccccc2)nnc1SC(C)C(=O)N/N=C/c1cc(Cl)ccc1O (stereo not shown) ?
0.335

Which measured hERG current change (%, negative = inhibition) at 10uM value corresponds to O=C(CS(=O)(=O)c1ccc(F)cc1)Nc1nnc(-c2cccs2)o1 ?
13.3

Which measured hERG current change (%, negative = inhibition) at 10uM value corresponds to Cc1ccc(S(=O)(=O)n2c(C)nc3cc(C)ccc32)cc1 ?
-3.01

Which measured hERG current change (%, negative = inhibition) at 10uM value corresponds to CCCCCCCNC(=O)C1(CC2CC(c3ccc(Cl)cc3)=NO2)CCN(C(=O)C2(C)CC2)CC1 (stereo not shown) ?
-55.8

Which measured hERG current change (%, negative = inhibition) at 10uM value corresponds to Cc1ccccc1C(=O)Nc1ccc(Cl)cn1 ?
6
